Target: Neprilysin (Rattus norvegicus)
Sequence (P07861 whole entry): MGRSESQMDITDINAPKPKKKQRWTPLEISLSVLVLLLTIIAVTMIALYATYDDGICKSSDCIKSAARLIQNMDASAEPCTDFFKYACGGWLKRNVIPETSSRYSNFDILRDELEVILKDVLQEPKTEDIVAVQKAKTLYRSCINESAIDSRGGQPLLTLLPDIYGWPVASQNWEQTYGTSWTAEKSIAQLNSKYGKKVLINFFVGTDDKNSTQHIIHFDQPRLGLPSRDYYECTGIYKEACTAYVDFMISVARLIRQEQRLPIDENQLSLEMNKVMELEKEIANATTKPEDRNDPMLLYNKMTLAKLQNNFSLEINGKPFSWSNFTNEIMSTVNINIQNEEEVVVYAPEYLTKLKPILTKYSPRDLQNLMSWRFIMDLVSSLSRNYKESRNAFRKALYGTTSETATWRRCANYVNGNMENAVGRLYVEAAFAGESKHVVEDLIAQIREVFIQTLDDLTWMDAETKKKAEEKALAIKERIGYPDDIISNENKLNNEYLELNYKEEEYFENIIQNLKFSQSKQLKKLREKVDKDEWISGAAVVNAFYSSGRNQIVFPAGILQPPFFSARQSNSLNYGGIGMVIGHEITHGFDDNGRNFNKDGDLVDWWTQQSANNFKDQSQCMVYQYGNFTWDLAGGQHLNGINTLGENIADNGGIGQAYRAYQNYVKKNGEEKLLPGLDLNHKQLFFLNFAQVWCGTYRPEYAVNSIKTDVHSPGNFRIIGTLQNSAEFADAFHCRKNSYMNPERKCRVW
Test: Inhibition of neutral endopeptidase (NEP).
pKi: −log10 of the molar value.
measure.name: pKi

Known results for molecules:
O=C(OCc1ccccc1)[C@H](Cc1ccc(O)cc1)NC(=O)C1(CS)CCc2ccccc2C1 (stereo not given in full) : 9.30
COC(=O)CCNC(=O)C1(CS)CCc2ccccc2C1 (stereo not given) : 9.70
COC(=O)[C@H](CC(C)C)NC(=O)C1(CS)CCc2ccccc2C1 (stereo not given in full) : 8.15

[P] O=C(CNC(=O)C1(CS)Cc2ccccc2C1)OCc1ccccc1
[Q] O=C(O)C1CCC(NC(=O)C2(CS)CCc3ccccc3C2)CC1 (stereo not given)
Query string: Recorded pKi values differ for P and Q ; which one is higher? Please indicate the selected item by its label.
Result string: Q
(Q: 9.22, P: 8.00)
